// data source = ChEMBL document CHEMBL3600298

Test system: HeLa
experimentSummary: Cytotoxicity against human HeLa cells incubated for 24 hrs by sulforhodamine B assay
Type: functional, cell-based
Exercise: for every item that follows, state its recorded IC50.

CCCCCCCCN1C(=O)c2cccc3c(NCCN4CCCNCCNCCCNCC4)ccc(c23)C1=O	10.1 µM

Your task in this section: give IC50 for each listed record.
1. CCCCNc1ccc2c3c(cccc13)C(=O)N(CCCN1CCCNCCNCCCNCC1)C2=O
2. CCCCCCCCNc1ccc2c3c(cccc13)C(=O)N(CCCN1CCCNCCNCCCNCC1)C2=O

Resp:
1: > 50 µM; 2: 8.4 µM

Your task in this section: give IC50 for each listed record.
1. CN1C(=O)c2cccc3c(NCCN4CCCNCCNCCCNCC4)ccc(c23)C1=O
2. CCCCCCCCCCCCN1C(=O)c2cccc3c(NCCN4CCCNCCNCCCNCC4)ccc(c23)C1=O
3. C1CNCCNCCCNCCNC1
4. CCCCCCCCCCCCNc1ccc2c3c(cccc13)C(=O)N(CCCN1CCCNCCNCCCNCC1)C2=O
5. CCCCN1C(=O)c2cccc3c(NCCN4CCCNCCNCCCNCC4)ccc(c23)C1=O
6. CNc1ccc2c3c(cccc13)C(=O)N(CCCN1CCCNCCNCCCNCC1)C2=O
7. CN(C)CCN1C(=O)c2cccc3cc(N)cc(c23)C1=O [AMONAFIDE]

Resp:
13.8 µM
11.8 µM
> 50 µM
9.36 µM
19.2 µM
> 50 µM
9.52 µM

---

System: A549
experimentSummary: Cytotoxicity against human A549 cells incubated for 24 hrs by sulforhodamine B assay
Assay type: functional, cell-based
assayContext: A549, 24 h
experimentalEndpoint: pIC50
Numbers only, as −log10 of the molar value.

CCCCN1C(=O)c2cccc3c(NCCN4CCCNCCNCCCNCC4)ccc(c23)C1=O	4.41
CCCCCCCCCCCCN1C(=O)c2cccc3c(NCCN4CCCNCCNCCCNCC4)ccc(c23)C1=O	4.73
CCCCCCCCNc1ccc2c3c(cccc13)C(=O)N(CCCN1CCCNCCNCCCNCC1)C2=O	4.94
CCCCCCCCCCCCNc1ccc2c3c(cccc13)C(=O)N(CCCN1CCCNCCNCCCNCC1)C2=O	4.80
CN1C(=O)c2cccc3c(NCCN4CCCNCCNCCCNCC4)ccc(c23)C1=O	4.46

Now, please, on to the next compound.
Req: Check A549 data and give pIC50 for "CCCCCCCCN1C(=O)c2cccc3c(NCCN4CCCNCCNCCCNCC4)ccc(c23)C1=O" .
Resp: 4.80

---

Tested on: HCT-116
experimentSummary: Cytotoxicity against human HCT116 cells incubated for 24 hrs by sulforhodamine B assay
Type: functional, cell-based
assayContext: HCT-116, 24 h
experimentalEndpoint: IC50

CNc1ccc2c3c(cccc13)C(=O)N(CCCN1CCCNCCNCCCNCC1)C2=O	> 50 µM
CCCCNc1ccc2c3c(cccc13)C(=O)N(CCCN1CCCNCCNCCCNCC1)C2=O	> 50 µM

Now, please, on to the next compound.
Req: Check HCT-116 data and give IC50 for "C1CNCCNCCCNCCNC1" .
Resp: > 50 µM

---

Test system: A549
experimentSummary: Cytotoxicity against human A549 cells incubated for 24 hrs by sulforhodamine B assay
Assay type: functional, cell-based
assayContext: A549, 24 h
experimentalEndpoint: IC50

C1CNCCNCCCNCCNC1	> 50 µM

Your task in this section: give IC50 for each listed record.
1. CNc1ccc2c3c(cccc13)C(=O)N(CCCN1CCCNCCNCCCNCC1)C2=O
2. CCCCNc1ccc2c3c(cccc13)C(=O)N(CCCN1CCCNCCNCCCNCC1)C2=O

Resp:
1: > 50 µM; 2: > 50 µM
